Reference source for all entries: patent US5700804A

target: UniProtKB P05121; assay: PAI chromogenic substrate assay (first S2251 assay, tPA/plasminogen system); assay type: biochemical; conditions: Concentration 6.25 μm
Sequence (P05121 24-402): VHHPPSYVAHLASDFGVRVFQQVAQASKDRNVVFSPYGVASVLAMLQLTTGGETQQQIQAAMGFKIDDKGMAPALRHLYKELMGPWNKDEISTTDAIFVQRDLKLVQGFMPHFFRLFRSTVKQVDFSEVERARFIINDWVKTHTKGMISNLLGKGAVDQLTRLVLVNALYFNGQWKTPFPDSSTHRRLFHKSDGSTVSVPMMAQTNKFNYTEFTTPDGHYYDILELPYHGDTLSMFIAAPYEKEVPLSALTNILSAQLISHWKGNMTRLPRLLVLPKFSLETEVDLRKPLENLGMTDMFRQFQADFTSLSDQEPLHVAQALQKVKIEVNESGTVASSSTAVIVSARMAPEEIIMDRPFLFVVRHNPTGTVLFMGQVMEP
experimental_readout: Inhibition of PAI-1 in the first S2251 chromogenic substrate assay (%)

# annotated cases, reported Inhibition of PAI-1 in the first S2251 chromogenic substrate assay shown
> print(dat)
                                   compound  measured.number
1  CC(=O)Oc1ccccc1/C=c1\[nH]c(=O)/c(=C/c2ccccc2)[nH]c1=O                0
2  CCOc1ccc(/C=c2\[nH]c(=O)/c(=C/c3ccccc3)[nH]c2=O)cc1                0
3  COc1ccc(/C=c2\[nH]c(=O)/c(=C/c3ccc(OC)c(OC)c3)[nH]c2=O)cc1                0

[1] CN(C)CCCOc1ccc(/C=c2\[nH]c(=O)/c(=C/c3ccccc3)[nH]c2=O)cc1 [Compound 75]
[2] O=c1[nH]/c(=C\c2ccc(O)cc2Cl)c(=O)[nH]/c1=C\c1ccccc1
Q. // compare measured Inhibition of PAI-1 in the first S2251 chromogenic substrate assay between 1 and 2 ; output the lower one Answer by stating the label of the chosen item.
A. 1
